// data source = ChEMBL document CHEMBL3639137

# assay.system: Prostaglandin E synthase (Homo sapiens)
# Sequence (O14684 whole entry): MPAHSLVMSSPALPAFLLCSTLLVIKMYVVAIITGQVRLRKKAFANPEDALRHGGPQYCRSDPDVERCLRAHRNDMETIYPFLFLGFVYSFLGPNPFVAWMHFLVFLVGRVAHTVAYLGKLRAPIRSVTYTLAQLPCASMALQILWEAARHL
# assay.text: Enzyme Assay: The aim of this assay is to determine the affinity of a test compound for the mPGES-1 enzyme. 47 ul of recombinant human mPGES-1 (0.5 ug protein/well) containing microsomal suspension in a buffer containing GSH, (2.5 mmol/L L-Glutathione reduced, dissolved in 0.1 mol/L Phosphat Buffer pH 7.4) is dispensed in a 384-well plate and thereafter 1 ul of the test compound(s) is/are added and incubated for 25 minutes at room temperature. The enzyme reaction is started by the addition of 2 ul PGH2 (final conc. 2 uM) dissolved in water-free Diglyme. After 60 seconds the reaction is terminated by addition of a stop solution containing FeCl2 (10 uL 0.074 mol/l FeCl2). The samples are diluted between 1:25 in PBS (Phosphate Buffered Saline). 10 ul of the diluted samples are transferred to 384-well low volume plate.
IC50: recorded values
Output spec: scalar in nM, unitless text.

>  <molecular.string>
CC(C)(C)C(=O)NCc1ccc(Cl)c(Nc2nc3c(F)c(OCC(F)(F)F)c(C(=O)N[C@H]4CC[C@H](C(F)(F)F)CC4)cc3[nH]2)c1Cl

>  <IC50 / nM>
2

$$$$
>  <molecular.string>
CC(C)(C)C(=O)NCc1ccc(Cl)c(Nc2nc3cc(OC(F)F)c(C(=O)N[C@H]4CC[C@H](C(F)(F)F)CC4)cc3[nH]2)c1Cl

>  <IC50 / nM>
2

$$$$
>  <molecular.string>
Cn1c(Nc2c(Cl)ccc(CNC(=O)C(C)(C)C)c2Cl)nc2cc(C(=O)Nc3cccc(C#N)c3)c(OCC(F)F)cc21

>  <IC50 / nM>
3

$$$$

The compound identified as `Cn1c(Nc2c(Cl)ccc(CNC(=O)C(C)(C)C)c2Cl)nc2cc(C(=O)Nc3ccc(Br)cc3)c(F)cc21` registered its IC50 at 2
